Tested on: cells of viro-induced leukemia of Friend
Assay: In vitro cytotoxic study on cells of the Friend leukemia of the mouse (Table XV)
Type: cell-based
Settings: Mus musculus, 24 h, read-out: LD 100 (100% lethal dose)
Protocol: "In vitro" cytotoxic study of the compounds of the invention on the cells of viro-induced leukemia of Friend in the mouse [J. Exp. Med. 1957, 105, p. 307-318]. […] The cultures were seeded at times t=0 at the concentration of 2×10^5 cells per ml in Falcon dishes containing 4 ml of medium. […] 24 hours after the addition of the product, the cells were counted and the percentage of living cells determined by an exclusion test with trypan blue.
reported.metric: IC100 (µM)
Lab book: enter the figure in µM, no units written.

CCN(CC)CCCNc1nccc2c(C)c3[nH]c4ccc(OCc5ccccc5)cc4c3cc12 :: 10
COc1ccc2[nH]c3c(C)c4ccnc(NCCCN(C)C)c4cc3c2c1 :: 3
CCN(CC)CCCC(C)Nc1nccc2c(C)c3[nH]c4ccc(OC)cc4c3cc12 (centres unmarked) :: 3
Cc1c2cc[n+](C)cc2c(C)c2c1[nH]c1ccc(O)cc12 [HUM, 2-methyl-9-hydroxy ellipticinium acetate, reference compound] :: 0.8
COc1ccc2[nH]c3c(C)c4ccnc(NCCCCCN)c4cc3c2c1 :: 1.5

According to the records, this molecule COc1ccc2[nH]c3c(C)c4ccnc(N5CCCCC5)c4cc3c2c1 displays IC100 of 100

According to the records, this molecule CCN(CC)CCCNc1nccc2c(C)c3[nH]c4ccc(OC)cc4c3cc12 displays IC100 of 1.5

According to the records, this molecule Cc1c2ccnc(NCCCN)c2cc2c1[nH]c1ccc(OCc3ccccc3)cc12 displays IC100 of 0.9

According to the records, this molecule COc1ccc2[nH]c3c(C)c4ccnc(NCCCN)c4c(C)c3c2c1 displays IC100 of 0.3
